Data origin: PubChem BioAssay (NCI)

system: BT-549 breast; assay: NCI-60 one-dose screen, 48 h (100 = growth as untreated, 0 = no growth, -100 = all killed); conditions: 10 µM unless noted
About 83,000 compounds went through this panel and 20% of them were active in at least one assay; those are over-represented in the sample as a whole.
Quantity Name: growth (%)
# number only, unit % dropped from output

# count of solved cases: 5
Compound	growth [%]
Oc1ccc(CSc2nnc(-c3ccc(Oc4ccccc4)cc3)o2)c2cccnc12	49.8
CC(C)N=C(N/C(N)=N/c1nc2ccccc2s1)NC(C)C	70
IP(CCCCCCCCCCSc1n(Cc2ccc3ccccc3c2)c(-c2ccccc2)c(-c2ccccc2)[n+]1Cc1ccc2ccccc2c1)(c1ccccc1)(c1ccccc1)c1ccccc1	-71.4
COc1cc(O)c2c(c1)/C=C/C[C@H](O)[C@H](O)C(=O)/C=C\C[C@H](C)OC2=O	-29.2
COCCOc1ccc(-c2csc(NC(C)=O)n2)cc1NS(=O)(=O)c1cccc2c(N(C)C)cccc12	105

May I ask what growth has been recorded for COc1ccc2c(c1)c(-c1nn3c(=O)cc(-c4ccccc4)nc3s1)cn2C ?
49.8

Give the measured growth of O=C(NNc1nc2cc(F)c(F)cc2n2cccc12)c1cccnn1 .
32.3

Which growth value is on record for CCOC(=O)Nc1cccc(-n2cnc3cc(-c4ccc(O)cc4)ccc32)c1 ?
39.3

###

test system: SK-OV-3 ovarian; assay: NCI-60 one-dose screen, 48 h; conditions: 10 µM unless noted
About 83,000 compounds went through this panel and 20% of them were active in at least one assay; those are over-represented in the sample as a whole. The source made the active and inactive calls. The calls were made as follows: active = growth percent below 10; inactive = the rest.
The categories you may choose from are 1.0 for active, 0.0 for inactive

Known results for molecules:
>>> df
                                   molecule  group_label
0  Nc1nc(-c2cccc([N+](=O)[O-])c2)c(N=Nc2ccccc2[N+](=O)[O-])s1          1.0
1  CN(C)c1ncc(/C=C2\SC(=S)N(Cc3ccccc3Cl)C2=O)s1          0.0
2  c1cncc(-c2cn3nc(-c4c[nH]c5ccccc45)sc3n2)c1          0.0
3  Cc1ccc(-c2csc(N/N=C/c3nc4ccccc4n3C3CC3)n2)cc1          0.0
4  C=CCn1c(SCC(=O)Nc2cccc(C(=O)/C=C/c3cc(OC)c(OC)c(OC)c3)c2)nc2ccccc2c1=O          0.0

Test call for this molecule, please: CCN(CC)CCN1C(=O)c2c(c3c4cccnc4[nH]c3c3ccc4ccccc4c23)C1=O
0.0

What classification did Cc1ccc(-c2cc(-c3ccc(N(C)C)cc3)n3c(n2)nc2ccccc23)cc1 end up with in this test?
0.0

Short answer needed: outcome of this test for C=C1C(=O)O[C@@H]2C[C@@H](C)/C=C\C(=O)[C@](C)(OC(C)=O)C[C@H](OC(=O)/C(C)=C\C)[C@@H]12 ?
0.0

###

Tested on: NCI-H23 lung
Test: NCI-60 one-dose screen, 48 h (100 = growth as untreated, 0 = no growth, -100 = all killed)
Settings: 10 µM unless noted
Procedure: Growth inhibition of the NCI-H23 human Non-Small Cell Lung tumor cell line is measured as a screen for anti-cancer activity. Cells are grown in 96 well plates and exposed to the test compound for 48 hours. Compounds are tested at a single concentration, which is 10^-5 M for most compounds. The reported endpoint is percent growth (GI% or GIPRCNT), where numbers from 0 - 100% represent growth inhibition, and numbers from -100% - 0 represent cell death. […]
About 83,000 compounds went through this panel and 20% of them were active in at least one assay; those are over-represented in the sample as a whole.
Rule: 1.0 for growth not less than 80%, 0.0 for anything less.

                                   molecule  group_label
0  COC1=C(c2ccccc2)C(=O)C(OC)=C(c2ccccc2)C1=O          1.0
1  COc1cc2cc(Oc3ccc(NC(=O)Nc4cccc(C(F)(F)F)c4)cc3)c(C)nc2cc1OCCN(C)C          1.0
2  O=C1c2c(c3c4cc(O)ccc4oc3c3[nH]c4ccccc4c23)C(=O)N1O          0.0

Could you verify whether the entry CCN(CC)CCN1C(=O)c2c(c3c4cccnc4[nH]c3c3ccc4ccccc4c23)C1=O shows growth of no less than 80%?
0.0

Threshold query (growth >= 80%) on COc1ccc(C2C(C#N)=C(N)Oc3c2sc2ccc(C)cc32)cc1 (centres undefined)
0.0
